# testSummary: qHTS assay to identify small molecule agonists of H2AX - cell viability counter screen (AID 1224847);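 note: wild-type CHO-K1 cells; top concentration of the series differs between compounds; % is set by controls: 0 for no effect and ±100 for the full control effect; nearly all actives have a fitted effect of over 30% in size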
# settings: CHO-K1 viability, CellTiter-Glo luminescence, 3 h; series mostly up to 154 µM
Records with an inconclusive call do not appear. Activity calls are given as the source filed them. Calls come from the whole dose curve.
recordedEndpoint: activity change, negative = cytotoxicity

Some entries whose results are on file:
compound=CC1(C)O[C@H]2CC(=O)OC[C@]23[C@H]2CC[C@@]4(C)[C@H](c5ccoc5)OC(=O)[C@H]5O[C@]54[C@]2(C)C(=O)C[C@@H]13 result=inactive
compound="OC1OCCOC1O (stereo unspecified)" result=inactive
compound=[O]=[Mo](=[O])=[O] result="-2.98% [at 31.6 µM] (inactive)"
compound=NCC1(Cc2noc(=O)[nH]2)CCCCC1 result=inactive
compound=CC1=NN(c2ccc(S(=O)(=O)O)cc2)C(=O)C1 result=inactive

Continue with the compound presented below.
Recorded activity change, negative = cytotoxicity for CCNC(=O)NCc1cccc(Cl)c1 , please?
inactive

* * *

# measuredOn: Luciferin 4-monooxygenase (Photinus pyralis)
# testSummary: qHTS assay to identify small molecule inhibitors of firefly luciferase (AID 1224835); note: potency is the fitted concentration of half-maximal effect; nearly all actives have a fitted effect of over 25% in size
# settings: purified P. pyralis luciferase, luminescence inhibition; series mostly up to 115 µM
Inconclusive results are not listed. Calls of active or inactive are those of the source. Calls come from the whole dose curve; as a rule, active = well fitted inhibition curve with a large enough effect in the repeat runs; inconclusive = weak or mixed curves; inactive = flat fitted curve, though single readings scatter.
recordedEndpoint: Potency

The examples below pair each entry with its known result.
moleculesmiles=c1ccc(B(c2ccccc2)c2ccccc2)cc1 result="31.7 µM (active)"
moleculesmiles=C/C=C(\C)C(=O)OCCc1ccccc1 result="7.1 µM (active)"
moleculesmiles=CC(C)NC(=O)c1ccc(C=O)cc1 result="17.4 µM (active)"

# ---- query compound ----
What measured Potency goes with ONc1ccccc1 ?
22.2 µM (active)

* * *

# testSummary: qHTS assay for small molecule agonists of the p53 signaling pathway (AID 651631); note: % is set by controls: 0 for no effect and ±100 for the full control effect; nearly all actives have a fitted effect of over 15% in size
# settings: HCT-116 p53RE-bla reporter, beta-lactamase FRET ratio, 16 h; series mostly up to 73.3 µM
Results filed as inconclusive are left out. The source made the active and inactive calls. The call rests on the fitted dose curve.
recordedEndpoint: activation

Solved entries (count: 5):
compound=Cc1ccnc(N)c1 recordedendpoint=activation result=inactive
compound=CN(C)CC/C=C1/c2ccccc2COc2ccc(CC(=O)O)cc21 recordedendpoint=activation result=inactive
compound="Cc1ncc([N+](=O)[O-])n1CC(C)O (stereo not drawn)" recordedendpoint=activation result=inactive
compound="CCCCCCC1(C)CCC(=O)O1 (stereo not drawn)" recordedendpoint=activation result=inactive
compound=C=CC(=O)CCCCC recordedendpoint=activation result=inactive

Param item = CC1OCCC1=O (stereo not drawn) ; retrieve measured activation.
inactive

Item under review: CCCCCCCCCCCCCCCCCC#N . Reported activation?
inactive

Return reported activation; argument: C=CCSSCCC
inactive

* * *

# testSummary: qHTS assay to identify small molecule agonists of the hypoxia (HIF-1) signaling pathway (AID 1224846); note: % is set by controls: 0 for no effect and ±100 for the full control effect
# settings: HRE-bla ME-180 cells, beta-lactamase ratio, 17 h; series mostly up to 76.8 µM
Inconclusive results are not listed. Active and inactive are the calls of the source. Calls come from the whole dose curve; as a rule, active = well fitted activation curve with a large enough effect in the signal ratio in the repeat runs (not every such curve was filed as active); inconclusive = weak or mixed curves; inactive = flat fitted curve, though single readings scatter; the % refers to the signal ratio.
recordedEndpoint: activation

molecule=CCN(CC)CCN recordedendpoint=activation result=inactive
molecule=C/C(CC(C)C)=N\O recordedendpoint=activation result=inactive
molecule=CC(C)Cn1cnc2c1c(=O)n(C)c(=O)n2C recordedendpoint=activation result=inactive
molecule=Cc1c(Cl)cccc1Cl recordedendpoint=activation result=inactive
molecule=CC(C)C[C@@H]1[C@H](c2ccccc2)OC(=O)N1CCCN1CCCCCC1 recordedendpoint=activation result=inactive
molecule=O=C1CCC(=O)N1Cl recordedendpoint=activation result=inactive
molecule="OC1OCCOC1O (stereo not given)" recordedendpoint=activation result=inactive
molecule=Cc1ccc(C)c([N+](=O)[O-])c1 recordedendpoint=activation result=inactive

Name the reported activation value associated with the molecule CC(C)CO
inactive

Could you tell me which activation is on file for O=C(O)CNC(=O)CNC(=O)CNC(=O)CSC(=O)c1ccccc1 ?
inactive
